// provenance: patent US20240270821A1

targetEntity: hGLP-1R (Homo sapiens, UniProt P43220)
Sequence (P43220 24-463): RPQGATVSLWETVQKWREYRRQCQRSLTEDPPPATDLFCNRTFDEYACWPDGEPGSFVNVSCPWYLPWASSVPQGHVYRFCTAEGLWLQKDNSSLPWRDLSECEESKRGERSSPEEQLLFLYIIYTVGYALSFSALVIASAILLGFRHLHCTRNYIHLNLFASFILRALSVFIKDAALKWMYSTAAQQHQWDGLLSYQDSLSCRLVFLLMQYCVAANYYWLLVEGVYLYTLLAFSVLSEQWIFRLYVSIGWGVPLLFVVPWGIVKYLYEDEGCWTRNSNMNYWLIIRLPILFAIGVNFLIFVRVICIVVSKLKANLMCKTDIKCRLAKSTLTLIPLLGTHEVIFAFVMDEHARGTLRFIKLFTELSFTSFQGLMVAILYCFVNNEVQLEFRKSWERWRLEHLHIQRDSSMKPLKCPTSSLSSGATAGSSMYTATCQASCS
experimentDescription: cell-based or functional assay
Starred links: 1 amine or outer side, 2 acyl side, 3 side chain; linkers in the order of their positions; H or OH if unused. Non-standard residues stand in square brackets, D forms with d. Groups on a side chain read outwards from the residue. No end group written: not given here. *: point of attachment. C18 diacid = O=C(O)CCCCCCCCCCCCCCCCC(=O)*; γGlu = O=C(O)[C@H](CCC(=O)[*:2])N[*:1]; αMeL = CC(C)C[C@](C)(N)C(=O)O; Dap = NC[C@H](N)C(=O)O; AEEA = NCCOCCOCC(=O)O; Aib = CC(C)(N)C(=O)O
outcomeMeasure: Relative cAMP EC50 (nM)
API: value field is a number in nM; no unit string.

>  <binder>
YXQGTFTSDXSQXLDXKAQXAFIEYLIEXGPSSGAPPPSGSEE (synthetic construct; SITE 2: note = 2-Aminoisobutyric Acid; SITE 10: note = 3-(4-Pyridyl)-L-alanine; SITE 13: note = alpha-methyl-leucine; SITE 16: note = L-ornithine; SITE 17: note = Lysine is chemically modified through conjugation of the epsilon-amino group of the Lysine side chain with (gamma-Gl)) [Example 937]

>  <Relative cAMP EC50, nM>
2.52

$$$$
>  <binder>
YXQGTFTSDXSQXLDXKAQXAFIEXLIEGGPSSGAPPPSGSEEE (acylated Lys e-γGlu-C18 diacid; non-natural residues; C-terminal amide; synthetic construct; SITE 2: note = 2-Aminoisobutyric Acid; SITE 10: note = 3-(4-Pyridyl)-L-alanine; SITE 13: note = alpha-methyl-leucine; SITE 16: note = L-ornithine; SITE 17: note = Lysine is chemically modified through conjugation of the epsilon-amino group of the Lysine side chain with D-Glutami) [Example 1071]

>  <Relative cAMP EC50, nM>
2.06

$$$$
>  <binder>
YXQGTFTSDFSQXLDKKAQXAFIEYLIEGGESSGAPPPSGS (synthetic construct; SITE 2: note = 2-Aminoisobutyric Acid; SITE 13: note = alpha-methyl-leucine; SITE 17: note = Lysine is chemically modified through conjugation of the epsilon-amino group of the Lysine side chain with (2-[2-(2-Amino-ethoxy)-ethoxy]-acetyl)-(gamma-Glu)-CO-(CH2) 16-CO2H; SITE 20: n) [Example 795]

>  <Relative cAMP EC50, nM>
0.972

$$$$
>  <binder>
YXQGTXTSDXXIXLDXKAQXXFIEXLIEGGPSSGEPPPE (synthetic construct; SITE 2: note = 2-Aminoisobutyric Acid; SITE 6: note = alpha-methyl-2-fluoro-L-phenylalanine; SITE 10: note = 3-(4-Pyridyl)-L-alanine; SITE 11: note = alpha-methyl-L-serine; SITE 13: note = alpha-methyl-leucine; SITE 16: note = L-ornithine; SITE 17: note = Lysine is chemically mo) [Example 378]

>  <Relative cAMP EC50, nM>
0.251

$$$$
>  <binder>
YXQGTXTSDXXIXLDXKAQXEFIEXLIEGGPPSXEPPPSGSE (non-natural residues, acylated Lys (AEEA-γGlu-C18 diacid), C-terminal amide; synthetic construct; SITE 2: note = 2-Aminoisobutyric Acid; SITE 6: note = alpha-methyl-2-fluoro-L-phenylalanine; SITE 10: note = 3-(4-Pyridyl)-L-alanine; SITE 11: note = alpha-methyl-L-serine; SITE 13: note = alpha-methyl-leucine; SITE 16: note = L-ornithine; SITE 17: note = Lysine is chemically mo) [Example 1200]

>  <Relative cAMP EC50, nM>
0.727

$$$$

Can you look up the measured Relative cAMP EC50 of YXQGTFTSDFSKXLDKKAQXAFIEWLLAGGPSSGEPPPSEG (non-natural residues, acyl lysine, C-terminal amide; synthetic construct; SITE 2: note = 2-Aminoisobutyric Acid; SITE 13: note = alpha-methyl-leucine; SITE 17: note = Lysine is chemically modified through conjugation of the epsilon-amino group of the Lysine side chain with (2-[2-(2-Amino-ethoxy)-ethoxy]-acetyl)-(gamma-Glu)-CO-(CH2) 18-CO2H; SITE 20: n) [Example 20] for me?
2.45

Can you look up the measured Relative cAMP EC50 of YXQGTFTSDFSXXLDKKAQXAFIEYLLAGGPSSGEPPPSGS (synthetic construct; SITE 2: note = 2-Aminoisobutyric Acid; SITE 12: note = L-ornithine; SITE 13: note = alpha-methyl-leucine; SITE 17: note = Lysine is chemically modified through conjugation of the epsilon-amino group of the Lysine side chain with (2-[2-(2-Amino-ethoxy)-ethoxy]-acetyl)-(gamma-Glu)) [Example 94] for me?
2.63

Can you look up the measured Relative cAMP EC50 of YXQGTFTSDFSKXLDKKAQXAFIEYLLEGGPSSGAPPPGGS (Aib, αMeL; acylated Lys; C-terminal amide; synthetic construct; SITE 2: note = 2-Aminoisobutyric Acid; SITE 13: note = alpha-methyl-leucine; SITE 17: note = Lysine is chemically modified through conjugation of the epsilon-amino group of the Lysine side chain with (2-[2-(2-Amino-ethoxy)-ethoxy]-acetyl)-(gamma-Glu)-CO-(CH2) 18-CO2H; SITE 20: n) [Example 18] for me?
2.31

Can you look up the measured Relative cAMP EC50 of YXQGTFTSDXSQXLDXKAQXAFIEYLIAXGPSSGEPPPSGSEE (non-natural residues, acylated Lys ((γGlu)2-C18 diacid), C-terminal amide; synthetic construct; SITE 2: note = 2-Aminoisobutyric Acid; SITE 10: note = 3-(4-Pyridyl)-L-alanine; SITE 13: note = alpha-methyl-leucine; SITE 16: note = L-ornithine; SITE 17: note = Lysine is chemically modified through conjugation of the epsilon-amino group of the Lysine side chain with (gamma-Gl)) [Example 1092] for me?
1.33

Can you look up the measured Relative cAMP EC50 of Y[Aib]QGTFTSDYS[Dap][αMeL]LDKK([AEEA-γGlu-C18 diacid])AQ[Aib]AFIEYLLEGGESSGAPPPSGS-NH2 [Example 360] for me?
5.86

Can you look up the measured Relative cAMP EC50 of YXQGTXTSDXSIXLDKKAQXXFIEYLAEGGPSSGEPPPSGSEE (non-natural residues; C18 diacid-(γ-Glu)2 acyl on Lys; C-terminal amide; synthetic construct; SITE 2: note = 2-Aminoisobutyric Acid; SITE 6: note = alpha-methyl-2-fluoro-L-phenylalanine; SITE 10: note = 3-(4-Pyridyl)-L-alanine; SITE 13: note = alpha-methyl-leucine; SITE 17: note = Lysine is chemically modified through conjugation of the epsilon-amino group of the Lysine) [Example 636] for me?
0.504
